# procedureText: Drug interaction study: pharmacokinetics of firmonertinib and AST-5902 in rats with or without nirmatrelvir and ritonavir (paxlovid)
# Format: in vivo, Sprague-Dawley (SD) rats
# conditionsUsed: male, Sprague-Dawley, rat, plasma, po, 7.2 mg/kg, rat plasma; Group B: single dose 55 mg/kg nirmatrelvir and 20 mg/kg ritonavir, then 7.2 mg/kg firmonertinib by gavage; read-out: CLz/F (converted)
Task for the reader: assign each of the following compounds its reported CL/F.
Give the quantity in mL/min/kg, number only.

What the record says about C=CC(=O)Nc1cc(Nc2nccc(-c3cn(C)c4ccccc34)n2)c(OCC(F)(F)F)nc1N(C)CCNC : CL/F is 851

Per the records, this compound ( C=CC(=O)Nc1cc(Nc2nccc(-c3cn(C)c4ccccc34)n2)c(OCC(F)(F)F)nc1N(C)CCN(C)C ) has CL/F equal to 256

---

# procedureText: Drug interaction study: pharmacokinetics of firmonertinib and AST-5902 in rats with or without nirmatrelvir and ritonavir (paxlovid)
# Type: in vivo, Sprague-Dawley (SD) rats
# conditionsUsed: male, Sprague-Dawley, rat, plasma, po, 7.2 mg/kg, rat plasma; Group A control: single 7.2 mg/kg firmonertinib by gavage alone; read-out: MRT(0-∞)
experimentalReadout: MRT inf (h)
Hi! Could you send only the number? It should be in h, unit omitted.

C=CC(=O)Nc1cc(Nc2nccc(-c3cn(C)c4ccccc34)n2)c(OCC(F)(F)F)nc1N(C)CCNC yielded MRT inf of 9.35

Record C=CC(=O)Nc1cc(Nc2nccc(-c3cn(C)c4ccccc34)n2)c(OCC(F)(F)F)nc1N(C)CCN(C)C , field MRT inf: 61.8

---

# procedureText: Drug interaction study: pharmacokinetics of firmonertinib and AST-5902 in rats with or without nirmatrelvir and ritonavir (paxlovid)
# Type: in vivo, Sprague-Dawley (SD) rats
# conditionsUsed: male, Sprague-Dawley, rat, plasma, po, 7.2 mg/kg, rat plasma; Group C: 5 days twice a day 55 mg/kg nirmatrelvir and 20 mg/kg ritonavir, then 7.2 mg/kg firmonertinib by gavage
experimentalReadout: Tmax (h)
Value expressed in h; do not type the unit.

// C=CC(=O)Nc1cc(Nc2nccc(-c3cn(C)c4ccccc34)n2)c(OCC(F)(F)F)nc1N(C)CCNC [AST-5902] : Tmax value = 8.67

For C=CC(=O)Nc1cc(Nc2nccc(-c3cn(C)c4ccccc34)n2)c(OCC(F)(F)F)nc1N(C)CCN(C)C [firmonertinib] the molecule record lists Tmax as 5

---

# procedureText: Drug interaction study: pharmacokinetics of firmonertinib and AST-5902 in rats with or without nirmatrelvir and ritonavir (paxlovid)
# Format: in vivo, Sprague-Dawley (SD) rats
# conditionsUsed: male, Sprague-Dawley, rat, plasma, po, 7.2 mg/kg, rat plasma; Group A control: single 7.2 mg/kg firmonertinib by gavage alone; read-out: CLz/F (converted)
experimentalReadout: CL/F
Enter the number, and then the unit.

molecule C=CC(=O)Nc1cc(Nc2nccc(-c3cn(C)c4ccccc34)n2)c(OCC(F)(F)F)nc1N(C)CCNC [AST-5902] , CL/F observed: 18.1 L/h/kg

Entry C=CC(=O)Nc1cc(Nc2nccc(-c3cn(C)c4ccccc34)n2)c(OCC(F)(F)F)nc1N(C)CCN(C)C [firmonertinib] ; CL/F = 20.5 L/h/kg

---

# procedureText: Drug interaction study: pharmacokinetics of firmonertinib and AST-5902 in rats with or without nirmatrelvir and ritonavir (paxlovid)
# Assay type: in vivo, Sprague-Dawley (SD) rats
# conditionsUsed: male, Sprague-Dawley, rat, plasma, po, 7.2 mg/kg, rat plasma; Group B: single dose 55 mg/kg nirmatrelvir and 20 mg/kg ritonavir, then 7.2 mg/kg firmonertinib by gavage
experimentalReadout: AUC(0-t)

// sample C=CC(=O)Nc1cc(Nc2nccc(-c3cn(C)c4ccccc34)n2)c(OCC(F)(F)F)nc1N(C)CCNC , its AUC(0-t) was 122 ng·h/mL

The molecule identified as C=CC(=O)Nc1cc(Nc2nccc(-c3cn(C)c4ccccc34)n2)c(OCC(F)(F)F)nc1N(C)CCN(C)C registered its AUC(0-t) at 456 ng·h/mL

---

# procedureText: Drug interaction study: pharmacokinetics of firmonertinib and AST-5902 in rats with or without nirmatrelvir and ritonavir (paxlovid)
# Type: in vivo, Sprague-Dawley (SD) rats
# conditionsUsed: male, Sprague-Dawley, rat, plasma, po, 7.2 mg/kg, rat plasma; Group C: 5 days twice a day 55 mg/kg nirmatrelvir and 20 mg/kg ritonavir, then 7.2 mg/kg firmonertinib by gavage
Record form. Attribute: Cmax. Fill in for each entry.
Just the number please, in ng/mL, no unit attached.

// Cmax lookup, compound = C=CC(=O)Nc1cc(Nc2nccc(-c3cn(C)c4ccccc34)n2)c(OCC(F)(F)F)nc1N(C)CCN(C)C , result: 27.9

Form: compound = C=CC(=O)Nc1cc(Nc2nccc(-c3cn(C)c4ccccc34)n2)c(OCC(F)(F)F)nc1N(C)CCNC ; Cmax = 10.2

---

For each of the molecules below, state its MRT last.
# procedureText: Drug interaction study: pharmacokinetics of firmonertinib and AST-5902 in rats with or without nirmatrelvir and ritonavir (paxlovid)
# Format: in vivo, Sprague-Dawley (SD) rats
# conditionsUsed: male, Sprague-Dawley, rat, plasma, po, 7.2 mg/kg, rat plasma; Group B: single dose 55 mg/kg nirmatrelvir and 20 mg/kg ritonavir, then 7.2 mg/kg firmonertinib by gavage; read-out: MRT(0-t)
Remember to follow the number with its unit.

MRT last in this record for C=CC(=O)Nc1cc(Nc2nccc(-c3cn(C)c4ccccc34)n2)c(OCC(F)(F)F)nc1N(C)CCN(C)C : 19.2 h

Per the records, this molecule ( C=CC(=O)Nc1cc(Nc2nccc(-c3cn(C)c4ccccc34)n2)c(OCC(F)(F)F)nc1N(C)CCNC ) has MRT last equal to 8.94 h

---

# procedureText: Drug interaction study: pharmacokinetics of firmonertinib and AST-5902 in rats with or without nirmatrelvir and ritonavir (paxlovid)
# Format: in vivo, Sprague-Dawley (SD) rats
# conditionsUsed: male, Sprague-Dawley, rat, plasma, po, 7.2 mg/kg, rat plasma; Group C: 5 days twice a day 55 mg/kg nirmatrelvir and 20 mg/kg ritonavir, then 7.2 mg/kg firmonertinib by gavage
# Procedure: The experimental animals for pharmacokinetics were eighteen male Sprague-Dawley (SD) rats (6–8 weeks old), weighing 180–220 g, purchased from Beijing Vital River Laboratory Animal Technology Co., Ltd. All animal-related experimental operations and care were performed in accordance with the Guide for the Care and Use of Laboratory Animals and were approved by the Animal Research Ethics Committee of Wenzhou Medical University (wydw2022-0184). […]
Assignment: determine reported half-life for the given molecules.
Dear colleague, please return just the value in h, with no unit written.

Summary for this molecule, C=CC(=O)Nc1cc(Nc2nccc(-c3cn(C)c4ccccc34)n2)c(OCC(F)(F)F)nc1N(C)CCNC [AST-5902] : half-life is 3.65

Entry C=CC(=O)Nc1cc(Nc2nccc(-c3cn(C)c4ccccc34)n2)c(OCC(F)(F)F)nc1N(C)CCN(C)C [firmonertinib] — recorded half-life = 17.9

---

# procedureText: Drug interaction study: pharmacokinetics of firmonertinib and AST-5902 in rats with or without nirmatrelvir and ritonavir (paxlovid)
# Assay type: in vivo, Sprague-Dawley (SD) rats
# conditionsUsed: male, Sprague-Dawley, rat, plasma, po, 7.2 mg/kg, rat plasma; Group C: 5 days twice a day 55 mg/kg nirmatrelvir and 20 mg/kg ritonavir, then 7.2 mg/kg firmonertinib by gavage
Field: AUC(0-t). Provide a value for each of the molecules that follow.
Please reply with the bare figure in ng·h/mL and do not write the unit itself.

// field: AUC(0-t); key: C=CC(=O)Nc1cc(Nc2nccc(-c3cn(C)c4ccccc34)n2)c(OCC(F)(F)F)nc1N(C)CCNC ; value = 122

Just so you know, measured AUC(0-t) for C=CC(=O)Nc1cc(Nc2nccc(-c3cn(C)c4ccccc34)n2)c(OCC(F)(F)F)nc1N(C)CCN(C)C came out at 421

---

# procedureText: Drug interaction study: pharmacokinetics of firmonertinib and AST-5902 in rats with or without nirmatrelvir and ritonavir (paxlovid)
# Type: in vivo, Sprague-Dawley (SD) rats
# conditionsUsed: male, Sprague-Dawley, rat, plasma, po, 7.2 mg/kg, rat plasma; Group B: single dose 55 mg/kg nirmatrelvir and 20 mg/kg ritonavir, then 7.2 mg/kg firmonertinib by gavage; read-out: MRT(0-∞)
Would you kindly list MRT inf for each of these compounds?
Record the result as number plus unit.

Reported MRT inf for C=CC(=O)Nc1cc(Nc2nccc(-c3cn(C)c4ccccc34)n2)c(OCC(F)(F)F)nc1N(C)CCN(C)C [firmonertinib] was 28.4 h

Briefly, MRT inf measured for C=CC(=O)Nc1cc(Nc2nccc(-c3cn(C)c4ccccc34)n2)c(OCC(F)(F)F)nc1N(C)CCNC [AST-5902] : 8.73 h

---

Please respond with reported CL/F for every item in the list.
# procedureText: Drug interaction study: pharmacokinetics of firmonertinib and AST-5902 in rats with or without nirmatrelvir and ritonavir (paxlovid)
# Assay type: in vivo, Sprague-Dawley (SD) rats
# conditionsUsed: male, Sprague-Dawley, rat, plasma, po, 7.2 mg/kg, rat plasma; Group C: 5 days twice a day 55 mg/kg nirmatrelvir and 20 mg/kg ritonavir, then 7.2 mg/kg firmonertinib by gavage; read-out: CLz/F (converted)
Only the number, expressed in mL/min/kg, is required.

Item: C=CC(=O)Nc1cc(Nc2nccc(-c3cn(C)c4ccccc34)n2)c(OCC(F)(F)F)nc1N(C)CCNC | CL/F: 969

// C=CC(=O)Nc1cc(Nc2nccc(-c3cn(C)c4ccccc34)n2)c(OCC(F)(F)F)nc1N(C)CCN(C)C : CL/F value = 264
